- systemTested: human GCG receptor (human, UniProt P47871 26-477)
- Sequence (P47871 26-477): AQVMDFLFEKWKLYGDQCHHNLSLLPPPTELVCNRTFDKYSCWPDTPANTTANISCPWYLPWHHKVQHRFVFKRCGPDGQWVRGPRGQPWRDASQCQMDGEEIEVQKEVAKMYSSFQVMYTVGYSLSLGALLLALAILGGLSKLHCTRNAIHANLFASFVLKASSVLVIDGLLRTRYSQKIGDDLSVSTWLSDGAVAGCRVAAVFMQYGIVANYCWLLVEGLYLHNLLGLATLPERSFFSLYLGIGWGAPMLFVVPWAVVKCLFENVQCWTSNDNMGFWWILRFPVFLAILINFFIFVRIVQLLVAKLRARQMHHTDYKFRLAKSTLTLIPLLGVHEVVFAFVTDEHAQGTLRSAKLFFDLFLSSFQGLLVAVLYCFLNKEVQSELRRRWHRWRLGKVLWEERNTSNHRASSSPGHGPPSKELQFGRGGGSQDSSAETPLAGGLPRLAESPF
- testName: cell-based or functional assay
Bridges are numbered along the chain shown (N, C = ends). Where no end group is shown, it is not given here. [ ]: non-standard residue; d: D form. The star is where a group is joined. Acetyl(2-(4-imidazolyl)) = O=C(Cc1c[nH]cn1)*; Aib = CC(C)(N)C(=O)O
measuredEndpoint: In vitro activity compared with native peptide (%) vs. Glucagon

[[record]]
binder = "{Acetyl(2-(4-imidazolyl))}-GQGTFTSDLSKQMDEERAREFIEWLLAQKPSSGAPPPSHG [Triple agonist of SEQ ID NO: 17]"
reportedvalue = "< 0.1%"

[[record]]
binder = "{Acetyl(2-(4-imidazolyl))}-[Aib]QGTFTSDCSKYLDERAAQDFVQWLLDGGPSSGAPPPS [Triple agonist of SEQ ID NO: 63]"
reportedvalue = "< 0.1%"

[[record]]
binder = "{Acetyl(2-(4-imidazolyl))}-[Aib]QGTFTSDYSICMDEKHQKDFVNWLLNTK (bridge 15-19) [Triple agonist of SEQ ID NO: 59]"
reportedvalue = "< 0.1%"

